Value source: patent US5129937A

Tested on: Rice (Oryza sativa)
TEST_NAME: Submerged Soil Treatment Test (Pre-Emergence Treatment), crop injury
Type: in vivo
SETTINGS: 30 g ai/a, granule, transplanted rice, observed 30 days later
Measured Crop injury Rice (Oryza sativa) accompanies every entry in the list below.

// worked examples, Crop injury Rice (Oryza sativa) included
{"columns": ["MOLECULE", "Crop injury Rice (Oryza sativa)"],
 "data": [
  ["COc1cc(OC)nc(Oc2ccccc2C=O)n1 [B, reference compound]", "5 (0-5 (Death))"],
  ["COc1cc(OC)nc(Oc2cccnc2C(OC)OC)n1", "0 (91-100 (No damages))"],
  ["CCOC(OCC)c1ncccc1Oc1nc(OC)cc(OC)n1", "0 (91-100 (No damages))"],
  ["CCOC(=O)c1ncccc1Oc1nc(OC)cc(OC)n1 [A, reference compound]", "5 (0-5 (Death))"]
]}

Req: For Rice (Oryza sativa), provide Crop injury Rice (Oryza sativa) of `COc1cc(OC)nc(Oc2cccnc2C2OCCO2)n1` please.
Resp: 0 (91-100 (No damages))

Req: Item: `CCCCOC(OCCCC)c1ncccc1Oc1nc(OC)cc(OC)n1`
Resp: 0 (91-100 (No damages))

Req: Item: `COc1cc(OC)nc(Oc2cccnc2C2OCCCO2)n1`
Resp: 0 (91-100 (No damages))

====

Test system: Redroot Pigweed
TEST_NAME: Upland Foliar Application Test
Format: in vivo
SETTINGS: 30 g ai/a; foliar application at 2-3 leaf stage, emulsion; observed on the 30th day
Reported Herbicidal effects Redroot Pigweed values are given for each entry in this list.

{"columns": ["COMPOUND", "Herbicidal effects Redroot Pigweed"],
 "data": [
  ["CCOC(=O)c1ncccc1Oc1nc(OC)cc(OC)n1 [A, reference compound]", "4 (6-10 (Severe damages))"],
  ["COc1cc(OC)nc(Oc2cccnc2C(OC)OC)n1 [Compound No. 2]", "5 (0-5 (Death))"],
  ["COc1cc(OC)nc(Oc2cccnc2C2OCCO2)n1 [Compound No. 6]", "5 (0-5 (Death))"],
  ["COc1cc(OC)nc(Oc2ccccc2C=O)n1 [B, reference compound]", "3 (11-40 (Medium damages))"]
]}

Then there is this compound:
Req: Could you share which Herbicidal effects Redroot Pigweed value was measured for CCCCOC(OCCCC)c1ncccc1Oc1nc(OC)cc(OC)n1 [Compound No. 4] ?
Resp: 5 (0-5 (Death))

====

Tested on: Corn (Zea maize)
TEST_NAME: Upland Soil Application Test, crop injury
Format: in vivo
SETTINGS: 30 g ai/a; soil application before emergence, wettable powder; observed 30 days later
MEASUREMENT_LABEL: Crop injury Corn (Zea maize)

{"columns": ["COMPOUND", "SYSTEM_UNDER_TEST", "Crop injury Corn (Zea maize)"],
 "data": [
  ["CCOC(OCC)c1ncccc1Oc1nc(OC)cc(OC)n1", "Corn (Zea maize)", "0 (91-100 (No damages))"],
  ["COc1cc(OC)nc(Oc2cccnc2C(OC)OC)n1", "Corn (Zea maize)", "0 (91-100 (No damages))"],
  ["COc1cc(OC)nc(Oc2cccnc2C2OCCCO2)n1", "Corn (Zea maize)", "0 (91-100 (No damages))"],
  ["COc1cc(OC)nc(Oc2ccccc2C=O)n1 [B, reference compound]", "Corn (Zea maize)", "5 (0-5 (Death))"],
  ["COc1cc(OC)nc(Oc2cccnc2C2OCCO2)n1", "Corn (Zea maize)", "0 (91-100 (No damages))"],
  ["CCOC(=O)c1ncccc1Oc1nc(OC)cc(OC)n1 [A, reference compound]", "Corn (Zea maize)", "5 (0-5 (Death))"],
  ["COc1cc(OC)nc(Oc2cccnc2C2OCC(C)O2)n1 (stereo not shown)", "Corn (Zea maize)", "0 (91-100 (No damages))"],
  ["COc1cc(OC)nc(Oc2cccnc2C=O)n1", "Corn (Zea maize)", "0 (91-100 (No damages))"]
]}

Req: So what does the record say about Crop injury Corn (Zea maize) for COc1cc(OC)nc(Oc2cccnc2C(OC)OC(C)C)n1 (stereo not shown) ?
Resp: 0 (91-100 (No damages))

Req: Try the compound `CCCCOC(OCCCC)c1ncccc1Oc1nc(OC)cc(OC)n1`
Resp: 0 (91-100 (No damages))

====

System: Soybean (Glycine max)
TEST_NAME: Upland Foliar Application Test, crop injury
Type: in vivo
SETTINGS: 30 g ai/a; foliar application at 2-3 leaf stage, emulsion; observed on the 30th day
MEASUREMENT_LABEL: Crop injury Soybean (Glycine max)

A selection of reference data follows.
{"columns": ["MOLECULE", "MEASUREMENT_LABEL", "REPORTED_VALUE"],
 "data": [
  ["CCOC(=O)c1ncccc1Oc1nc(OC)cc(OC)n1 [A, reference compound]", "Crop injury Soybean (Glycine max)", "5 (0-5 (Death))"],
  ["COc1cc(OC)nc(Oc2ccccc2C=O)n1 [B, reference compound]", "Crop injury Soybean (Glycine max)", "5 (0-5 (Death))"],
  ["COc1cc(OC)nc(Oc2cccnc2C(OC)OC(C)C)n1 (centres unmarked)", "Crop injury Soybean (Glycine max)", "0 (91-100 (No damages))"],
  ["CCOC(OCC)c1ncccc1Oc1nc(OC)cc(OC)n1", "Crop injury Soybean (Glycine max)", "0 (91-100 (No damages))"]
]}

Consider the additional molecule presented here.
Req: Please report the recorded Crop injury Soybean (Glycine max) for `COc1cc(OC)nc(Oc2cccnc2C2OCCCO2)n1` .
Resp: 0 (91-100 (No damages))

====

Test system: Arrowhead sp. (Sagittaria pygmaea)
TEST_NAME: Submerged Soil Treatment Test (Pre-Emergence Treatment)
Format: in vivo
SETTINGS: 30 g ai/a, granule, observed 30 days later
MEASUREMENT_LABEL: Herbicidal effects Arrowhead sp. (Sagittaria pygmaea)

Req: Value lookup for Herbicidal effects Arrowhead sp. (Sagittaria pygmaea); key = COc1cc(OC)nc(Oc2cccnc2C(OC)OC(C)C)n1 (centres unmarked)
Resp: 5 (0-5 (Death))

Req: // next record `COc1cc(OC)nc(Oc2cccnc2C2OCCO2)n1`
Resp: 5 (0-5 (Death))

====

// reported Crop injury Cotton (Gossypium indicum) for each item listed
Tested on: Cotton (Gossypium indicum)
TEST_NAME: Upland Soil Application Test, crop injury
Type: in vivo
SETTINGS: 30 g ai/a; soil application before emergence, wettable powder; observed 30 days later

# count of solved cases: 5
{"columns": ["COMPOUND", "Crop injury Cotton (Gossypium indicum)"],
 "data": [
  ["CCOC(OCC)c1ncccc1Oc1nc(OC)cc(OC)n1 [Compound No. 3]", "0 (91-100 (No damages))"],
  ["COc1cc(OC)nc(Oc2ccccc2C=O)n1 [B, reference compound]", "5 (0-5 (Death))"],
  ["COc1cc(OC)nc(Oc2cccnc2C2OCCO2)n1 [Compound No. 6]", "0 (91-100 (No damages))"],
  ["COc1cc(OC)nc(Oc2cccnc2C(OC)OC(C)C)n1 (centres unmarked) [Compound No. 5]", "0 (91-100 (No damages))"],
  ["COc1cc(OC)nc(Oc2cccnc2C2OCCCO2)n1 [Compound No. 8]", "0 (91-100 (No damages))"]
]}

Req: Which Crop injury Cotton (Gossypium indicum) value is on record for COc1cc(OC)nc(Oc2cccnc2C=O)n1 [Compound No. 1] ?
Resp: 0 (91-100 (No damages))

Req: Can you check COc1cc(OC)nc(Oc2cccnc2C(OC)OC)n1 [Compound No. 2] next?
Resp: 0 (91-100 (No damages))

Req: Now consider CCOC(=O)c1ncccc1Oc1nc(OC)cc(OC)n1 [A, reference compound] and answer again.
Resp: 5 (0-5 (Death))

====

Tested on: Rice (Oryza sativa)
TEST_NAME: Submerged Soil Treatment Test (Pre-Emergence Treatment), crop injury
Type: in vivo
SETTINGS: 30 g ai/a, granule, transplanted rice, observed 30 days later
// values below are reported Crop injury Rice (Oryza sativa)

Req: Endpoint output: Crop injury Rice (Oryza sativa) of COc1cc(OC)nc(Oc2cccnc2C(OC)OC(C)C)n1 (stereo not drawn) . Value?
Resp: 0 (91-100 (No damages))

Req: Now try `COc1cc(OC)nc(Oc2cccnc2C=O)n1` .
Resp: 1 (71-90 (Slight damages))

Req: Likewise for COc1cc(OC)nc(Oc2cccnc2C2OCC(C)O2)n1 (stereo not drawn) ?
Resp: 0 (91-100 (No damages))

====

Tested on: Arrowhead sp. (Sagittaria pygmaea)
TEST_NAME: Submerged Soil Treatment Test (Pre-Emergence Treatment)
Type: in vivo
SETTINGS: 30 g ai/a, granule, observed 30 days later
MEASUREMENT_LABEL: Herbicidal effects Arrowhead sp. (Sagittaria pygmaea)

{"columns": ["COMPOUND", "REPORTED_VALUE"],
 "data": [
  ["COc1cc(OC)nc(Oc2cccnc2C=O)n1", "4 (6-10 (Severe damages))"]
]}

Req: # get_value(readout= Herbicidal effects Arrowhead sp. (Sagittaria pygmaea), system= Arrowhead sp. (Sagittaria pygmaea)) for `COc1cc(OC)nc(Oc2cccnc2C2OCCCO2)n1`
Resp: 4 (6-10 (Severe damages))

Req: Here is the next compound: COc1cc(OC)nc(Oc2ccccc2C=O)n1 [B, reference compound]
Resp: 5 (0-5 (Death))

Req: Request: `CCCCOC(OCCCC)c1ncccc1Oc1nc(OC)cc(OC)n1`
Resp: 5 (0-5 (Death))

Req: Next compound up: `COc1cc(OC)nc(Oc2cccnc2C(OC)OC)n1`
Resp: 5 (0-5 (Death))

Req: CCOC(=O)c1ncccc1Oc1nc(OC)cc(OC)n1 [A, reference compound] ?
Resp: 4 (6-10 (Severe damages))
